Would you kindly list solubility for each of these compounds?
assay: Solubility test in first and second liquid of the Japanese Pharmacopoeia; details: first liquid of the Japanese Pharmacopoeia (JP1), pH 1.2, simulated gastric fluid, Solubility, First liquid of Japanese Pharmacopoeia (μg/mL), JP1, pH=1.2
Answers are plain numbers, in µg/mL.

Guide cases for solubility, answers given:
O=C(Nc1cc(F)c(CC(=O)N2C[C@@H](N3CC(CN4CCOCC4)C3)C[C@H]2CO[C@H]2CC[C@H](C(=O)O)CC2)cc1Cl)c1coc2ccccc12 [Example 30]
1100
CN(C)C(=O)C1CCN([C@H]2C[C@@H](CO[C@H]3CC[C@H](C(=O)O)CC3)N(C(=O)Cc3cc(Cl)c(NC(=O)c4coc5ccccc45)cc3Cl)C2)CC1 [Example 107]
1200
CO[C@H]1CN([C@H]2C[C@@H](CO[C@H]3CC[C@H](C(=O)O)CC3)N(C(=O)Cc3cc(Cl)c(NC(=O)c4cn(C)c5ccccc45)cc3Cl)C2)C[C@@H]1OC [Example 51]
1000
CO[C@H]1CN([C@H]2C[C@@H](CO[C@H]3CC[C@H](C(=O)O)CC3)N(C(=O)Cc3cc(Cl)c(NC(=O)c4csc5ccccc45)cc3F)C2)C[C@@H]1OC [Example 52]
1000

Hi team, please reply with solubility for each item in this list.
1. O=C(Nc1cc(F)c(CC(=O)N2C[C@@H](N3C[C@@H]4OCO[C@@H]4C3)C[C@H]2CO[C@H]2CC[C@H](C(=O)O)CC2)cc1Cl)c1coc2ccccc12 [Example 74]
2. Cn1cc(C(=O)Nc2cc(Cl)c(CC(=O)N3C[C@@H](N4CC5CC4CN5C4CC4)C[C@H]3CO[C@H]3CC[C@H](C(=O)O)CC3)cc2Cl)c2ccccc21 (some centres unmarked) [Example 164]
3. C[C@@H]1CN([C@H]2C[C@@H](CO[C@H]3CC[C@H](C(=O)O)CC3)N(C(=O)Cc3ccc(NC(=O)c4nccc5ccccc45)c(Cl)c3)C2)C[C@H](C)O1 [Example 86]

Result ::
1200
1000
1300

----------
assay: Solubility test in first and second liquid of the Japanese Pharmacopoeia; settings: second liquid of the Japanese Pharmacopoeia (JP2), pH 6.8, aqueous buffer, Solubility, Second liquid of Japanese Pharmacopoeia (μg/mL), JP2, pH=6.8
Consider the following molecules; for each one, report its solubility.

Look at each molecule and report its solubility.
1. CO[C@@H]1CCN([C@H]2C[C@@H](CO[C@H]3CC[C@H](C(=O)O)CC3)N(C(=O)Cc3cc(Cl)c(NC(=O)c4cn(C)c5ccccc45)cc3Cl)C2)C1 [Example 33]
2. COCC1CCN([C@H]2C[C@@H](CO[C@H]3CC[C@H](C(=O)O)CC3)N(C(=O)Cc3cc(Cl)c(NC(=O)c4csc5ccccc45)cc3F)C2)CC1 [Example 99]
3. C[C@@H]1CN([C@H]2C[C@@H](CO[C@H]3CC[C@H](C(=O)O)CC3)N(C(=O)Cc3cc(Cl)c(NC(=O)c4cn(C)c5ccccc45)cc3F)C2)C[C@H](C)N1CCF [Example 147]
4. COC1CCN([C@H]2C[C@@H](CO[C@H]3CC[C@H](C(=O)O)CC3)N(C(=O)Cc3cc(Cl)c(NC(=O)c4csc5ccccc45)cc3F)C2)CC1 [Example 103]
5. CO[C@H]1CCN([C@H]2C[C@@H](CO[C@H]3CC[C@H](C(=O)O)CC3)N(C(=O)Cc3cc(Cl)c(NC(=O)c4cn(C)c5ccccc45)cc3Cl)C2)C1 [Example 35]
6. O=C(Nc1cc(F)c(CC(=O)N2C[C@@H](N3CC(N4CCCCC4)C3)C[C@H]2CO[C@H]2CC[C@H](C(=O)O)CC2)cc1Cl)c1csc2ccccc12 [Example 28]
7. CN(C)C(=O)[C@@H]1CCCN1[C@H]1C[C@@H](CO[C@H]2CC[C@H](C(=O)O)CC2)N(C(=O)Cc2cc(Cl)c(NC(=O)c3csc4ccccc34)cc2F)C1 [Example 42]

Result ::
1. > 2000 µg/mL
2. 1020 µg/mL
3. 1400 µg/mL
4. 1360 µg/mL
5. > 2000 µg/mL
6. 1100 µg/mL
7. > 2000 µg/mL

solubility measured on CO[C@H]1CN([C@H]2C[C@@H](CO[C@H]3CC[C@H](C(=O)O)CC3)N(C(=O)Cc3cc(Cl)c(NC(=O)c4coc5ccccc45)cc3Cl)C2)C[C@H]1OC [Example 60] = 1000 µg/mL

----------
biological target: hα4 and β1 integrins (Homo sapiens, UniProt P05556+P13612); assay: In vitro inhibition of binding between CHO cells expressing hα4 and β1 integrins and Eu3+-hVCAM-1 D1D7-IgG; settings: in the presence of 3% human serum albumin (HSA final concentration 3%)
Sequence (P13612 34-1032): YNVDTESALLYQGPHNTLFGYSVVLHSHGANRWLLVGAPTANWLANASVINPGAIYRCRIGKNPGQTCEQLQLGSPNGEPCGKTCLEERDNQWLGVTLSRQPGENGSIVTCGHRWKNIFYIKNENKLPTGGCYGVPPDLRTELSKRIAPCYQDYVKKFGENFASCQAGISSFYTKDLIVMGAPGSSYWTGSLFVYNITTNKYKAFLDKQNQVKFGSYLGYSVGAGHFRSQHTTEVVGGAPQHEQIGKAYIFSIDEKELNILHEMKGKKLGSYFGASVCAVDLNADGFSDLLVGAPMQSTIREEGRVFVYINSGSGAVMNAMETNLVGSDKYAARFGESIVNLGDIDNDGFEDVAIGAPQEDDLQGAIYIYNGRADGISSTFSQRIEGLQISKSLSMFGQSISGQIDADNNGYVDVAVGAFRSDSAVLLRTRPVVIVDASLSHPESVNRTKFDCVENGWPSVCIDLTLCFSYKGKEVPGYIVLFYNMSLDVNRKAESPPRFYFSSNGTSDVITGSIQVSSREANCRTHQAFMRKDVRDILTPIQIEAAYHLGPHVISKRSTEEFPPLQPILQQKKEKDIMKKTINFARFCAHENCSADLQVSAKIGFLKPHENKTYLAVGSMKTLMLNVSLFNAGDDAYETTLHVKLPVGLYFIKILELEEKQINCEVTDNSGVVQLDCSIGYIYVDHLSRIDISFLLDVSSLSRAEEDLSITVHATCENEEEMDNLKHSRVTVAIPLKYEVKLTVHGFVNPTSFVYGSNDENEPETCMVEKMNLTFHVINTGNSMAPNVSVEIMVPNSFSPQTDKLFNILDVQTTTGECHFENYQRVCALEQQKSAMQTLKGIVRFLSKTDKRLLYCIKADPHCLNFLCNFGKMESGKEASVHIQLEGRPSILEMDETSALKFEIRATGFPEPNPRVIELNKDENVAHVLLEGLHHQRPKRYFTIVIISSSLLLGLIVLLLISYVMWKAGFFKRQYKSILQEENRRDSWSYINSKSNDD
Sequence (P05556 21-798): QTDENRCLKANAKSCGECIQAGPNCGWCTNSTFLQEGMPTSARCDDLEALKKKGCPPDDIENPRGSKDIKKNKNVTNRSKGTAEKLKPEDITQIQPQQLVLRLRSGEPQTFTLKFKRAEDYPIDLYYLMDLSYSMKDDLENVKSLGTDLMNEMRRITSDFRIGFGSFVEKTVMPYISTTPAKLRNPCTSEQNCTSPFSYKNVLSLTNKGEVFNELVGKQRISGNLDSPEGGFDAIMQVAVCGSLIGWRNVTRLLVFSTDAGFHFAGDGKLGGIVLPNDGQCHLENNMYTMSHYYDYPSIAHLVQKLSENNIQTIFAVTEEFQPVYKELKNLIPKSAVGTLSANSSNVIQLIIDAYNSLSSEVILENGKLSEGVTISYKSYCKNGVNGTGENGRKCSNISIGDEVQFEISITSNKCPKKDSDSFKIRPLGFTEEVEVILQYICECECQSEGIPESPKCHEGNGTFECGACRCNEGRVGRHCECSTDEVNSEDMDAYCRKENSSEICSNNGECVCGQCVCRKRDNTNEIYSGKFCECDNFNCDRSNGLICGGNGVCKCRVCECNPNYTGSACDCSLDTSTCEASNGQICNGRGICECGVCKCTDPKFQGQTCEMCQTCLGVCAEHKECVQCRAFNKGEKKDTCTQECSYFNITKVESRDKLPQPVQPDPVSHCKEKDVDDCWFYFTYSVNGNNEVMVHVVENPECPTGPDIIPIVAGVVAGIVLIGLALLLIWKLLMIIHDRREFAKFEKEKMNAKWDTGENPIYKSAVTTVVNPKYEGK
MEASURED_ENDPOINT: pIC50
Answers are plain numbers, as −log10 of the molar value.

Examples with answers:
C[C@@H]1CN([C@H]2C[C@@H](CO[C@H]3CC[C@H](C(=O)O)CC3)N(C(=O)Cc3cc(Cl)c(NC(=O)c4cn(C)c5ccccc45)cc3F)C2)C[C@H](C)O1
7.92
O=C(Nc1cc(F)c(CC(=O)N2C[C@@H](N3CCN(CC(F)(F)F)CC3)C[C@H]2CO[C@H]2CC[C@H](C(=O)O)CC2)cc1Cl)c1coc2ccccc12
7.89
O=C(Nc1cc(Cl)c(CC(=O)N2C[C@@H](N3C[C@@H]4OCO[C@@H]4C3)C[C@H]2CO[C@H]2CC[C@H](C(=O)O)CC2)cc1Cl)c1coc2ccccc12
7.66
O=C(Nc1cc(F)c(CC(=O)N2C[C@@H](N3CCC(F)(F)C3)C[C@H]2CO[C@H]2CC[C@H](C(=O)O)CC2)cc1Cl)c1csc2ccccc12
7.62
Cn1cc(C(=O)Nc2cc(F)c(CC(=O)N3C[C@@H](N4CC5CC4CO5)C[C@H]3CO[C@H]3CC[C@H](C(=O)O)CC3)cc2Cl)c2ccccc21 (stereo partly shown)
7.44

Give one value of pIC50 per listed compound.
1. C[C@@H]1CN([C@H]2C[C@@H](CO[C@H]3CC[C@H](C(=O)O)CC3)N(C(=O)Cc3cc(Cl)c(NC(=O)c4csc5ccccc45)cc3F)C2)C[C@H](C)O1
2. CO[C@H]1CN([C@H]2C[C@@H](CO[C@H]3CC[C@H](C(=O)O)CC3)N(C(=O)Cc3ccc(NC(=O)c4nn(C)c5ccccc45)c(Cl)c3)C2)C[C@H]1OC
3. CS(=O)(=O)N1CCCN([C@H]2C[C@@H](CO[C@H]3CC[C@H](C(=O)O)CC3)N(C(=O)Cc3cc(Cl)c(NC(=O)c4coc5ccccc45)cc3F)C2)CC1
4. O=C(Nc1cc(F)c(CC(=O)N2C[C@@H](N3CC(N4CCOCC4)C3)C[C@H]2CO[C@H]2CC[C@H](C(=O)O)CC2)cc1Cl)c1csc2ccccc12
5. O=C(Nc1cc(F)c(CC(=O)N2C[C@@H](N3CCCS3(=O)=O)C[C@H]2CO[C@H]2CC[C@H](C(=O)O)CC2)cc1Cl)c1coc2ccccc12
6. CN1CCN([C@H]2C[C@@H](CO[C@H]3CC[C@H](C(=O)O)CC3)N(C(=O)Cc3cc(Cl)c(NC(=O)c4cn(C)c5ccccc45)cc3Cl)C2)CC1

Result ::
1. 8.39
2. 8.00
3. 7.96
4. 7.37
5. 7.21
6. 8.02

Items follow; give pIC50 for each.
1. C[C@@H]1CN([C@H]2C[C@@H](CO[C@H]3CC[C@H](C(=O)O)CC3)N(C(=O)Cc3ccc(NC(=O)c4coc5ccccc45)c(Cl)c3)C2)C[C@H](C)O1
2. O=C(Nc1cc(Cl)c(CC(=O)N2C[C@@H](N3CCCN(C4CC4)CC3)C[C@H]2CO[C@H]2CC[C@H](C(=O)O)CC2)cc1Cl)c1csc2ccccc12
3. CO[C@@H]1CN([C@H]2C[C@@H](CO[C@H]3CC[C@H](C(=O)O)CC3)N(C(=O)Cc3cc(Cl)c(NC(=O)c4coc5ccccc45)cc3Cl)C2)C[C@H]1OC
4. O=C(Nc1cc(F)c(CC(=O)N2C[C@@H](N3CCN(Cc4ccccc4)CC3)C[C@H]2CO[C@H]2CC[C@H](C(=O)O)CC2)cc1Cl)c1csc2ccccc12
5. CO[C@@H]1CCN([C@H]2C[C@@H](CO[C@H]3CC[C@H](C(=O)O)CC3)N(C(=O)Cc3cc(Cl)c(NC(=O)c4cn(C)c5ccccc45)cc3Cl)C2)C1
6. Cn1cc(C(=O)Nc2cc(Cl)c(CC(=O)N3C[C@@H](N4CCC(S(C)(=O)=O)CC4)C[C@H]3CO[C@H]3CC[C@H](C(=O)O)CC3)cc2Cl)c2ccccc21

Result ::
[8.09, 8.23, 7.46, 7.68, 7.70, 8.09]

Give one value of pIC50 per listed compound.
1. Cn1cc(C(=O)Nc2cc(Cl)c(CC(=O)N3C[C@@H](N4CCN(CCF)CC4)C[C@H]3CO[C@H]3CC[C@H](C(=O)O)CC3)cc2Cl)c2ccccc21
2. C[C@@H]1CN([C@H]2C[C@@H](CO[C@H]3CC[C@H](C(=O)O)CC3)N(C(=O)Cc3cc(Cl)c(NC(=O)c4coc5ccccc45)cc3F)C2)C[C@H](C)N1C

Result ::
1. 7.92
2. 8.12

For each of the compounds below, note its pIC50.
1. Cn1cc(C(=O)Nc2cc(F)c(CC(=O)N3C[C@@H](N4CCS(=O)(=O)CC4)C[C@H]3CO[C@H]3CC[C@H](C(=O)O)CC3)cc2Cl)c2ccccc21
2. Cn1cc(C(=O)Nc2cc(F)c(CC(=O)N3C[C@@H](N4CCSCC4)C[C@H]3CO[C@H]3CC[C@H](C(=O)O)CC3)cc2Cl)c2ccccc21

Result ::
1. 8.00
2. 7.80

GET /value?item= Cn1cc(C(=O)Nc2cc(F)c(CC(=O)N3C[C@@H](N4C[C@H]5COC[C@H]5C4)C[C@H]3CO[C@H]3CC[C@H](C(=O)O)CC3)cc2Cl)c2ccccc21 &field=pIC50 returns 7.82
